Target: MASP-2 CCP2-SP (Homo sapiens (Human), UniProt O00187)
Sequence (O00187 445-686): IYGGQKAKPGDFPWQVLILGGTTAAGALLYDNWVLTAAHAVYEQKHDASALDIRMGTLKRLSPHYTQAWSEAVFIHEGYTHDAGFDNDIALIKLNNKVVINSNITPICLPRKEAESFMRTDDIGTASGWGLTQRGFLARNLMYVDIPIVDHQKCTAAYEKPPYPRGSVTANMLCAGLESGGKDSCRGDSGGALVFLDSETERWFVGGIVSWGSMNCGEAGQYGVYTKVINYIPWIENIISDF
Sequence (O00187 364-432 partner): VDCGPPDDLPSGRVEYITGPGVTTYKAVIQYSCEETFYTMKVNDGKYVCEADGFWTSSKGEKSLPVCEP
Assay: MASP-2 co-crystallization, X-ray crystallography and structure analysis (H-bonds, van der Waals contacts)
Details: Table A6-1 pharmacophore angle
Reported a(O1, CA6, O2) values for a set of molecules
assay-metric: a(O1, CA6, O2)

1. Cc1cnc(NCCc2ccccc2)c(=O)n1CC(=O)NCc1ccc2nc(N)[nH]c2c1 [compound 1492]    87.17
2. CNC(=O)c1ccc2c(=O)n(Cc3ccccc3)c(=O)n(CC(=O)NCc3ccc(C(=N)N)cc3)c2c1 [compound 2018]    159.18
3. O=c1oc(-c2ccccc2[N+](=O)[O-])nc2ccccc12 [compound 14]    75.74
4. C[C@H](NC(=O)[C@@H](CCc1ccccc1)NCc1ccc(N2CCOCC2)cc1)C(=O)NCc1ccc(C(=N)N)cc1 [compound 1149]    131.55
